system: AT/RT and MRT cell lines; experiment: In vitro combination studies of tazemetostat in a panel of AT/RT and MRT cell lines; assay type: cell-based; conditions: cell line models of AT/RT and MRT
quantityMeasured: Antiproliferative effect of combination with tazemetostat

CC[C@]1(O)C[C@H]2CN(CCc3c([nH]c4ccccc34)[C@@](C(=O)OC)(c3cc4c(cc3OC)N(C=O)[C@H]3[C@@](O)(C(=O)OC)[C@H](OC(C)=O)[C@]5(CC)C=CCN6CC[C@]43[C@@H]65)C2)C1    Synergistic activity
COc1cc(Nc2ncc3c(n2)-c2ccc(Cl)cc2C(c2c(F)cccc2OC)=NC3)ccc1C(=O)O    Synergistic activity
COc1cccc2c1C(=O)c1c(O)c3c(c(O)c1C2=O)C[C@@](O)(C(=O)CO)C[C@@H]3O[C@H]1C[C@H](N)[C@H](O)[C@H](C)O1    Synergistic activity

---

system: BT-12 cells; experiment: Combination of tazemetostat with other agents, pretreatment model, luminescent cell viability (ATP) assay; format: cell-based; details: pretreatment model: 4 days tazemetostat, then 4 days agent alone or with tazemetostat; synergy by Loewe Volume, Fa-CI plots
quantityMeasured: Combination treatment with tazemetostat, BT-12

Nc1ccccc1NC(=O)c1ccc(CNC(=O)OCc2cccnc2)cc1 [Entinostat]    Synergy
CC[C@]1(O)C[C@H]2CN(CCc3c([nH]c4ccccc34)[C@@](C(=O)OC)(c3cc4c(cc3OC)N(C=O)[C@H]3[C@@](O)(C(=O)OC)[C@H](OC(C)=O)[C@]5(CC)C=CCN6CC[C@]43[C@@H]65)C2)C1 [Vincristine]    Synergy
N.N.O=C([O-])C1(C(=O)[O-])CCC1.[Pt+2] [Carboplatin]    Additive
CC[C@@]1(O)C(=O)OCc2c1cc1n(c2=O)Cc2cc3c(CN(C)C)c(O)ccc3nc2-1 [Topotecan]    Synergy
COc1cc(Nc2ncc3c(n2)-c2ccc(Cl)cc2C(c2c(F)cccc2OC)=NC3)ccc1C(=O)O [Alisertib]    Synergy
Nc1ccn([C@@H]2O[C@H](CO)[C@@H](O)[C@@H]2O)c(=O)n1 [Cytarabine/Ara-C, Cytarabine]    Synergy
COc1cc([C@@H]2c3cc4c(cc3[C@@H](O[C@@H]3O[C@@H]5CO[C@@H](C)O[C@H]5[C@H](O)[C@H]3O)[C@H]3COC(=O)[C@H]23)OCO4)cc(OC)c1O [Etoposide]    Additive
COc1cccc2c1C(=O)c1c(O)c3c(c(O)c1C2=O)C[C@@](O)(C(=O)CO)C[C@@H]3O[C@H]1C[C@H](N)[C@H](O)[C@H](C)O1 [Doxorubicin]    Synergy

Continue with the next compound.
Reported Combination treatment with tazemetostat, BT-12 for CO[C@H]1C[C@@H]2CC[C@@H](C)[C@@](O)(O2)C(=O)C(=O)N2CCCC[C@H]2C(=O)O[C@H]([C@H](C)C[C@@H]2CC[C@@H](OCCO)[C@H](OC)C2)CC(=O)[C@H](C)/C=C(\C)[C@@H](O)[C@@H](OC)C(=O)[C@H](C)C[C@H](C)/C=C/C=C/C=C/1C [Everolimus] : what is it?
Synergy
